- Tested on: L1 wild-type C. elegans
- condition.description: caenorhabditis elegans
value.kind: LC50

{"compound": "O=C1OC(c2ccccc2)=NC1=CC=Cc1ccccc1 (mixture of isomers) [NPD8298]", "result": "2.57 µM"}
{"compound": "Cc1cc(O)c(C(=O)/C=C/c2ccccc2)c(=O)o1 [NPD8366]", "result": "11.6 µM"}
{"compound": "COc1ccc(N=c2cc(-c3ccc(OC)cc3)oc3ccc(O)cc23)cc1 [NPD8034]", "result": "12 µM"}

---

- system: C. elegans (N2) complex I (NADH:ubiquinone oxidoreductase) (Caenorhabditis elegans, UniProt P24887+Q93873+Q94360)
- Sequence (Q94360 17-199): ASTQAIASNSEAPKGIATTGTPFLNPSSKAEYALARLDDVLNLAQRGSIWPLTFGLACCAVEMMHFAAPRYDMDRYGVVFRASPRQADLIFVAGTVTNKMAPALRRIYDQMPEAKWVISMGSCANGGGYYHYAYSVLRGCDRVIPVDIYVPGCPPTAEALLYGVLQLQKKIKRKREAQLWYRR
- Sequence (P24887 whole entry): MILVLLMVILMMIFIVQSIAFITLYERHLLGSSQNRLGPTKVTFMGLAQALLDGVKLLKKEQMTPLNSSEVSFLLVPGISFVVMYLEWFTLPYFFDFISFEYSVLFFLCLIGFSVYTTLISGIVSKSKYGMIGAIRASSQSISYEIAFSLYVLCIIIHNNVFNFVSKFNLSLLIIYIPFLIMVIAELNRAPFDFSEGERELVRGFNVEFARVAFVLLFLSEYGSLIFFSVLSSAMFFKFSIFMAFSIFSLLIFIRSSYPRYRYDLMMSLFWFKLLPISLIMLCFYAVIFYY
- Sequence (Q93873 31-482): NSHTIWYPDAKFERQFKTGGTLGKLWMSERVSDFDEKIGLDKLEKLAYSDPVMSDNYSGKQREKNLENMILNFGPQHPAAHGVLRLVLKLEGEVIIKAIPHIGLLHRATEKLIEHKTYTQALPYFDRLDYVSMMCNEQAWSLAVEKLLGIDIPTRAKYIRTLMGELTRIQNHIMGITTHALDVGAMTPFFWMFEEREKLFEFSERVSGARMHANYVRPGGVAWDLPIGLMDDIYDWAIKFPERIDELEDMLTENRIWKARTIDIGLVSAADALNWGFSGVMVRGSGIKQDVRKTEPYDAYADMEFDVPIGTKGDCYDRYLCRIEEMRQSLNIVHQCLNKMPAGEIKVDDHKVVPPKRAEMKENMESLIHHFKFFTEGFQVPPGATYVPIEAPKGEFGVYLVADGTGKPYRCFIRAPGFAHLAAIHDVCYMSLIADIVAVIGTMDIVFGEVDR
- experiment.notes: biochemical
- Type: biochemical
- condition.description: Dose 0.005 µM; read-out: C. elegans mitochondrial complex I activity
- Description: Mitochondria were isolated from the following free-living nematode strains: C. elegans—N2, CB3474, ECA882, ECA917, ECA1075, ECA1080; C. briggsae—AF16; P. pacificus—PS312; and P. hermaphrodita—B178. With the exception of the P. hermaphrodita strain B178, adult worms of each strain were grown in bulk through liquid culture to obtain mitochondria in sufficient quantities. […]

{"compound": "CC(C)Oc1cccc(OCCn2cnc3ccccc32)c1 [Compound 7926496]", "activity at 0.005 µM / %": 89.3}
{"compound": "Cc1nc2ccccc2n1Cc1ccc(Cl)c(Cl)c1 [Compound 5655567]", "activity at 0.005 µM / %": 90.5}
{"compound": "Cc1cccc(OCCn2c(C)nc3ccccc32)c1 [Compound 6285199]", "activity at 0.005 µM / %": 87.6}
{"compound": "Nc1nc2ccccc2n1Cc1ccc(Cl)cc1 [Compound 5652765]", "activity at 0.005 µM / %": 90.5}
{"compound": "Nc1nc2ccccc2n1CCOc1ccc(Br)cc1 [Compound 5842535]", "activity at 0.005 µM / %": 89.3}
